- TESTED_SYSTEM: Galectin-1 (Homo sapiens, UniProt P09382)
- Sequence (P09382 whole entry): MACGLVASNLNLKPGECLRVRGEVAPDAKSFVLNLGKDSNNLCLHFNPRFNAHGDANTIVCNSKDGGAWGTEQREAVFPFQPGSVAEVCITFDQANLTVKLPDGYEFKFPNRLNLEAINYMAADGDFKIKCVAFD
READOUT_NAME: pIC50
Scale note: pIC50 = -log10(concentration in M).

Here is how some compounds turned out for pIC50.
[[record]]
compound = "CO[C@@H]1[C@@H](n2cc(-c3cc(F)cc(F)c3)nn2)[C@@H](O)[C@@H](CO)O[C@H]1C(=O)N(c1cc(Cl)cc(Cl)c1)[C@H]1CCCC[C@@H]1O"
result_number = 6.72

[[record]]
compound = "Cc1nc(CN(C(=O)[C@@H]2O[C@H](CO)[C@H](O)[C@H](n3cc(-c4cc(F)c(F)c(F)c4)nn3)[C@H]2O)[C@H]2CCCC[C@@H]2O)c[nH]1"
result_number = 4.39


Okay, now this compound:
Which pIC50 is reported with Galectin-1 (Homo sapiens, UniProt P09382) for this entry: `COc1cc(-c2cn([C@H]3[C@@H](O)[C@@H](CO)O[C@@H](C(=O)N(c4cc(Cl)cc(C#N)c4)[C@H]4CCCC[C@@H]4O)[C@@H]3OC)nn2)ccc1Cl` ? 6.55
